Sourced from the RepoRT retention time repository

- TEST: HILIC, HILICON iHILIC-(P) Classic, HILIC, PEEK, 50 × 2.1 mm, 5 µm, 45 °C, 0.12 mL/min, estimated dead time 0.92 min; A: water + 20 mM ammonium carbonate; B: acetonitrile; gradient (min/%B) 0/90 1/90 21/20 21.5/20 26.5/20 27.5/90 35/90
- EXPERIMENTAL_SETUP: stereoisomer not certain
MEASURED_PARAMETER: LC retention time (min)

• Nc1ccn(C2OC(COP(=O)(O)O)C(O)C2O)c(=O)n1 (configuration not stated) [CMP] = 10.9
• NC(=O)c1ccc[n+](C2OC(COP(=O)(O)OP(=O)(O)OCC3OC(n4cnc5c(N)ncnc54)C(OP(=O)(O)O)C3O)C(O)C2O)c1 (configuration not stated) [NADP] = 13.5
• NC(Cc1c[nH]c2ccccc12)C(=O)O (configuration not stated) [Tryptophan] = 6.18
• O=C(O)CCCCC1SCC2NC(=O)NC21 (configuration not stated) [Biotin] = 3.35
• NC(=O)C1=CN(C2OC(COP(=O)(O)OP(=O)(O)OCC3OC(n4cnc5c(N)ncnc54)C(OP(=O)(O)O)C3O)C(O)C2O)C=CC1 (configuration not stated) [NADPH] = 16.8
• NC(CSSCC(N)C(=O)O)C(=O)O (configuration not stated) [Cystine] = 11.6
• Nc1ncnc2c1ncn2C1OC(COP(=O)(O)O)C(O)C1O (configuration not stated) [AMP] = 8.49
